We begin with a simple list: items and their reported koff.
target: T1, recombinant human IL4Rα-his protein (in house made) (human, UniProt P24394 26-232, limits assumed); assay: SPR (Biacore), antibody captured, IL4Rα-his flowed
T1 construct: also called Human IL4Ra-his
# number only, unit s⁻¹ dropped from output

{"Binder": "huB8G11F2B7G5E8-V14 (antibody, human IgG4 S228P, kappa, V domains shown, Humanized, human IgG4/kappa; also called huBSG11F2B7G5E8-V14) VH: EVQLVQSGAEVKKPGATVKISCKVSGFNIKDTYMHWVKQAPGKGLEWMGRIDPTNGYTIYASKFQGKATITADTSSNTAYMELSSLRSEDTAVYHCVSRRPWFAYWGQGTLVTVSS VL: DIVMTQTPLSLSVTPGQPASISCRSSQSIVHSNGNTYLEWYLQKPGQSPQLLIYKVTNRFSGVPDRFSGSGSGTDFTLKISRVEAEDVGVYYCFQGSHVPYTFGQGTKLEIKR", "Readout units": "s⁻¹", "koff": 0.00113}

Turning to the following binder.
Give its koff value. Item: huB8G11F2B7G5E8-V10 (antibody, human IgG4 S228P, kappa, V domains shown, Humanized, human IgG4/kappa; also called huBSG11F2B7G5E8-V10) VH: EVQLVQSGAEVKKPGATVKISCKASGFNIKDTYMHWVKQAPGKGLEWVGRIDPTNGYTIYASKFQGRVTITADTSTNTAYMELSSLRSEDTAVYHCVSRRPWFAYWGQGTLVTVSS VL: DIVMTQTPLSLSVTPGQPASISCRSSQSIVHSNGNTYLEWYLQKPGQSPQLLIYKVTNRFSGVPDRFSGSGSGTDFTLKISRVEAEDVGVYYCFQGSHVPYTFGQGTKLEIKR 0.0028

Cited source for all entries: patent US20230105029A1
